Target: calmodulin (Sigma) (UniProt P62157 2-149)
Experiment: FP with calmodulin (text value; Table 2 prints 52 ± 12)
Square brackets hold non-standard residues; d marks the D form. Ends that are not written are not given here. pS = N[C@@H](COP(=O)(O)O)C(=O)O
QUANTITY_MEASURED: Kd (µM)
Answers are plain numbers, in µM.

Q: Look up Kd: GPSQPTYPGDDAPVRRL[pS]FFYILLDLYLDAPGVC(acetamidofluorescein)-NH2 (designed binder, also called PPKID4 (phosphorylated)) [PPKID4^P]
A: 51
